Target: T1, human PRLR on cells (human, UniProt P16471 25-622)
T1 sequence: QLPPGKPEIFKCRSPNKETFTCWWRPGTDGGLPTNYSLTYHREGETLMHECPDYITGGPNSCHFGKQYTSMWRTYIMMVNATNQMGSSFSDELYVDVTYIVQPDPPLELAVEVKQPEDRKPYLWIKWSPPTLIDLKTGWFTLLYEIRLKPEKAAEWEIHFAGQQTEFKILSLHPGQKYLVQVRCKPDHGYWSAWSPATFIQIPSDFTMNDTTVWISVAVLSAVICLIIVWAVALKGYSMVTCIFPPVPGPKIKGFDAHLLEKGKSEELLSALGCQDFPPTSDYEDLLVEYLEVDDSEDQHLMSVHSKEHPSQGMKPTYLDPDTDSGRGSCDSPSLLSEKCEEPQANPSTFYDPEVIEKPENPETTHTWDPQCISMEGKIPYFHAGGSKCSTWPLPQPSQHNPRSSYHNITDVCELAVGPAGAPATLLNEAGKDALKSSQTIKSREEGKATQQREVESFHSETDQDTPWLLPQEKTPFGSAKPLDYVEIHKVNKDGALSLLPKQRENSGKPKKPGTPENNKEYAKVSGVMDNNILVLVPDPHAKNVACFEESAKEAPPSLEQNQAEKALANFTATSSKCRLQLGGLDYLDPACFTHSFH
Assay: cell-based or functional assay
measured.attribute: Baf3-hPRLR proliferation IC50 (µg/mL)
Answers are plain numbers, in µg/mL.

Answered examples (3):
binder: chAb5 (antibody, human IgG1, kappa, V domains shown, chimeric, murine variable and human G1/kappa constant regions) VH: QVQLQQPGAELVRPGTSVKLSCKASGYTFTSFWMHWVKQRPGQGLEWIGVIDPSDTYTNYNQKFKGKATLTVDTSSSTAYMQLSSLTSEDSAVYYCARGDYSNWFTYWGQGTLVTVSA VL: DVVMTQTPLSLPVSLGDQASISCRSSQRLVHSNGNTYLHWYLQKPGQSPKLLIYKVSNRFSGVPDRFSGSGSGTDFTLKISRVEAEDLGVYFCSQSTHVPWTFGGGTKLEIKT
display.unit: µg/mL
assay.value: 0.15

binder: Ab16 (antibody, human IgG1, kappa, V domains shown, humanized from Ab6; G1; also called Ab1 HC.1 and Ab1 LC.2) VH: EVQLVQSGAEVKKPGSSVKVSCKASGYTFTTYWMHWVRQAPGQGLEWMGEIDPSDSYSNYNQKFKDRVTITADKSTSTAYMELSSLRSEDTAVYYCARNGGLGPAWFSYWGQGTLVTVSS VL: EIVMTQSPATLSVSPGERATLSCKASQYVGTAVAWYQQKPGQAPRLLIYSASNRYTGIPARFSGSGSGTEFTLTISSLQSEDFAVYYCQQYSSYPWTFGGGTKVEIKR
display.unit: µg/mL
assay.value: 0.46

binder: Ab51 (antibody, human IgG1, kappa, V domains shown, humanized from Ab8; G1; also called Ab3 HC.1b and Ab3 LC.1a) VH: EVQLVQSGAEVKKPGASVKVSCKASGYTFTDYNIHWVRQAPGQGLEWIGYIYPNNDGTGYAQKLQGRVTMTVDTSTSTAYMELRSLRSDDTAVYYCARGDGNYVGDMDYWGQGTTVTVSS VL: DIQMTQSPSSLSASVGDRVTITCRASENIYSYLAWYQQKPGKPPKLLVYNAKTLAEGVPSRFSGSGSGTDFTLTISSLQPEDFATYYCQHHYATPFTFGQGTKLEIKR
display.unit: µg/mL
assay.value: 0.55

Below is a list of binders. For each, state its recorded Baf3-hPRLR proliferation IC50.
1. Ab8 (antibody, V domains shown, murine monoclonal, isotype G2b; also called murine Ab8) VH: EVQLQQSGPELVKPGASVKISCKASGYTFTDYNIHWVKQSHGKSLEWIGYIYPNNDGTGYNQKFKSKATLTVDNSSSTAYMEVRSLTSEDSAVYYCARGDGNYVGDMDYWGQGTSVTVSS VL: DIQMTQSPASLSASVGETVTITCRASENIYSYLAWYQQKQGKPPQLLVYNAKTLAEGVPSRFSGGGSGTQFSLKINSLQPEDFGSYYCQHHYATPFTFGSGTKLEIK
2. Ab49 (antibody, human IgG1, kappa, V domains shown, humanized from Ab8; G1; also called Ab3 HC.1a and Ab3 LC.1b) VH: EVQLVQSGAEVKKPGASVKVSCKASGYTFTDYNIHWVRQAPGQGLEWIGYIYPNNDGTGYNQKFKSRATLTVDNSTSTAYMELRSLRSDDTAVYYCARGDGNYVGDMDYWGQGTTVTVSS VL: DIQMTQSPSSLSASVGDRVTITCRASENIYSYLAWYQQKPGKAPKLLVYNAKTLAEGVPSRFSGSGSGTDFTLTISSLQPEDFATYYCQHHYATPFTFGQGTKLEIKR

A.
1. 1.15
2. 0.37
